- Measured on: TCΔC11.PTP (Homo sapiens)
- Construct: both the wild type and truncated forms of the T-cell phosphatase; made in house; host or cells: Sf9 cells (baculovirus)
- Sequence (P17706 1-317 limits assumed, stated change not applied): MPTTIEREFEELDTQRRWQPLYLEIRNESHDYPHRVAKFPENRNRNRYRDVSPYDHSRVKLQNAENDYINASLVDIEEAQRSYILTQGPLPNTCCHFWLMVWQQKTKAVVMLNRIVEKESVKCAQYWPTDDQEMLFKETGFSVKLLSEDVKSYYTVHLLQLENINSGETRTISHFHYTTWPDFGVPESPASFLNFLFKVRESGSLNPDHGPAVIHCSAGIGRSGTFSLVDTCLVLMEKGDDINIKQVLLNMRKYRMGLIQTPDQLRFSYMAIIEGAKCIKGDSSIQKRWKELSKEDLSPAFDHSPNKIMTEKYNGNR
- Procedure details: Phosphatase assay with ENDY(P)INASL as substrate
- Format: biochemical
- Settings: effector 1.0 mM
- Method: The tyrosine phosphatases TC.PTP, TCΔC11.PTP, and RPTPα were purified from infected Sf9 cells as described recently (Zander et al., Biochemistry 30: 6964-6970, 1991; Daum et al., J. Biol. Chem. 266: 12211-12215, 1991). […] Phosphatase assays with ENDY(P)INASL were performed in buffer M6. […] The mixture was cleared by 10-minute centrifugation and the radioactivity of 150 μl of the supernate was determined. […]
Readout type: Phosphatase activity in percent of the value obtained in the absence of effectors (%)
The answer is to be given in %; state only the numeric part.

Compound smiles: [Mg+2]
Result: 75

Name the recorded Phosphatase activity in percent of the value obtained in the absence of effectors for [Zn+2] .
21

Request: O=C(O)CN(CCN(CC(=O)O)CC(=O)O)CC(=O)O
142

Request: [Mn+2]
34
